- Tested on: plants
- Assay name: Test D pre-emergence, other plants of Tables D1 and D3
- Format: in vivo
- Condition context: pre-emergence, rate 60, 20 DAA, 100=total damage, 0=no damage
- Description: A formulation containing 50 g/L of the test chemical was prepared by dissolving the active ingredient in a mixture of organic solvents and emulsifier, details of which are provided in the table. This formulation was then mixed with a small, variable amount of acetone to aid dissolution, before addition of a 0.2% v/v aqueous solution of an adjuvant, as the aqueous diluent, to form an aqueous spray solution which contains a predetermined concentration of the active ingredient. […]
Reported property: damage to plant, LOLPE

In [3]: df
Out[3]:
                                   compound       reported_property  assay_value
0  CN1CC(c2cc(C(F)(F)F)n(C)n2)C(C(=O)Nc2ccc(F)cc2F)C1=O (racemic)  damage to plant, LOLPE            0
1  CN1CC(c2cc(C(F)(F)F)n(C)n2)C(C(=O)Nc2ccc(F)nc2F)C1=O (racemic)  damage to plant, LOLPE            0
2  CN1CC(c2cc(C(F)(F)F)n(C)n2)C(C(=O)Nc2cccc(F)c2F)C1=O (racemic)  damage to plant, LOLPE            0
3  CN1CC(c2cc(C(F)(F)F)n(C)n2)C(C(=O)Nc2cccc(F)c2C(F)(F)F)C1=O (racemic)  damage to plant, LOLPE            0
4  CN1C[C@H](c2nn(C)c3c(F)cccc23)[C@@H](C(=O)Nc2cccc(F)c2F)C1=O  damage to plant, LOLPE           10

----------
- System: plants
- Assay name: Test D pre-emergence, other plants of Tables D1 and D3
- Format: in vivo
- Condition context: ECHCG; preemergent; rate 250; 20 DAA
Reported property: damage to plant (100=total damage to plant; 0=no damage to plant), ECHCG

>>> print(df.to_string())
                                   compound  assay_value
0  CN1CC(c2cc(C(F)(F)F)n(C)n2)C(C(=O)Nc2ccc(F)c(F)c2F)C1=O (racemic) [Compound 17]          100
1  CN1CC(c2cc(C(F)(F)F)n(C)n2)C(C(=O)Nc2cccc(F)c2F)C1=O (racemic) [Compound 3]          100
2  CN1CC(c2cc(C(F)(F)F)n(C)n2)C(C(=O)Nc2ccccc2F)C1=O (racemic) [Compound 9]           90
3  CCn1nc([C@H]2CN(C)C(=O)[C@@H]2C(=O)Nc2cccc(F)c2F)c2cc(F)ccc21 [Compound 8]           90

----------
- System: plants
- Assay name: Test D post-emergence, other plants of Tables D2 and D4
- Format: in vivo
- Condition context: post-emergence, BRAPL, rate 250, evaluated after 15 d
Reported damage to plant (100=total damage to plant; 0=no damage to plant), BRAPL by item:
Reported property: damage to plant (100=total damage to plant; 0=no damage to plant), BRAPL

>>> print(df.to_string())
                                   compound  test_target  assay_value
0  CN1CC(c2cc(C(F)(F)F)n(C)n2)C(C(=O)Nc2cccc(F)n2)C1=O (racemic)       plants           40
1  CN1CC(c2cc(C(F)(F)F)n(C)n2)C(C(=O)Nc2ccc(F)cc2C(C)(F)F)C1=O (racemic)       plants           60
2  COc1c(F)cccc1NC(=O)C1C(=O)N(C)CC1c1cc(C(F)(F)F)n(C)n1 (racemic)       plants           70
3  CN1CC(c2cc(C(F)(F)F)n(C)n2)C(C(=O)Nc2cccc(F)c2C(F)(F)F)C1=O (racemic)       plants           70
4  CCn1nc([C@@H]2CN(C)C(=O)[C@H]2C(=O)Nc2cccc(F)c2F)c2cccc(F)c21       plants           70

----------
- Tested on: plants
- Assay name: Test D pre-emergence, other plants of Tables D1 and D3
- Type: in vivo
- Condition context: pre-emergence, rate 30, 20 DAA, 100=total damage, 0=no damage
The molecules listed here are annotated with their damage to plant, BEAVA.
Reported property: damage to plant, BEAVA

>>> df
                                   molecule  assay_value
0  CCn1nc([C@@H]2CN(C)C(=O)[C@H]2C(=O)Nc2cccc(F)c2F)c2cccc(F)c21 [Compound 14]            0
1  COc1c(F)cccc1NC(=O)C1C(=O)N(C)CC1c1cc(C(F)(F)F)n(C)n1 (racemic) [Compound 18]            0
2  CN1CC(c2cnn(C)c2C(F)(F)F)C(C(=O)Nc2cccc(F)c2F)C1=O (racemic) [Compound 25]            0
3  CN1CC(c2cc(C(F)(F)F)n(C)n2)C(C(=O)Nc2cccc(F)n2)C1=O (racemic) [Compound 24]            0

----------
- Test system: plants
- Assay name: Test D pre-emergence, other plants of Tables D1 and D3
- Format: in vivo
- Condition context: BRAPL; preemergent; rate 60; 20 DAA
Reported property: damage to plant (100=total damage to plant; 0=no damage to plant), BRAPL

>>> df
                                   compound  test_target  assay_value
0  CN1CC(c2cc(C(F)(F)F)n(C)n2)C(C(=O)Nc2cccc(F)n2)C1=O (racemic)       plants           30
1  CN1CC(c2cc(C(F)(F)F)n(C)n2)C(C(=O)Nc2ccc(F)cc2F)C1=O (racemic)       plants           60
2  CCn1nc([C@H]2CN(C)C(=O)[C@@H]2C(=O)Nc2cccc(F)c2F)c2c(F)cccc21       plants           80
3  CN1CC(c2cc(C(F)(F)F)n(C)n2)C(C(=O)Nc2ccc(F)c(F)c2F)C1=O (racemic)       plants           80
4  CN1CC(c2cc(C(F)(F)F)n(C)n2)C(C(=O)Nc2ccccc2F)C1=O (racemic)       plants           30

----------
- Test system: plants
- Assay name: Test D pre-emergence, other plants of Tables D1 and D3
- Format: in vivo
- Condition context: pre-emergence, rate 60, 20 DAA, 100=total damage, 0=no damage
Listing of recorded damage to plant, AVEFA by entry.
Reported property: damage to plant, AVEFA

>>> df
                                   compound       reported_property  assay_value
0  COc1c(F)cccc1NC(=O)C1C(=O)N(C)CC1c1cc(C(F)(F)F)n(C)n1 (racemic) [Compound 18]  damage to plant, AVEFA            0
1  CCn1nc([C@@H]2CN(C)C(=O)[C@H]2C(=O)Nc2cccc(F)c2F)c2cccc(F)c21 [Compound 14]  damage to plant, AVEFA            0
2  CN1CC(c2cc(Cl)n(C)n2)C(C(=O)Nc2ccc(F)c(F)c2F)C1=O (racemic) [Compound 31]  damage to plant, AVEFA            0
3  CCn1nc([C@H]2CN(C)C(=O)[C@@H]2C(=O)Nc2cccc(F)c2F)c2c(F)cccc21 [Compound 7]  damage to plant, AVEFA            0

----------
- Test system: giant foxtail (Setaria faberi, SETFA)
- Assay name: Test A post-emergence, giant foxtail
- Assay type: in vivo
- Condition context: Post-Emergence at 250 g/ha; after 13 d
Reported property: damage to plant (100=total damage; 0=no damage) SETFA

>>> print(df.to_string())
                                   compound                            test_target  assay_value
0  CN1CC(c2cc(C(F)(F)F)n(C)n2)C(C(=O)Nc2ccc(F)nc2F)C1=O (racemic) [Compound 22]  giant foxtail (Setaria faberi, SETFA)           80
1  CN1CC(c2cc(C(F)(F)F)n(C)n2)C(C(=O)Nc2cccc(F)c2F)C1=O (racemic) [Compound 3]  giant foxtail (Setaria faberi, SETFA)           90
2  CN1CC(c2nn(C)c(Cl)c2Br)C(C(=O)Nc2cccc(F)c2F)C1=O (racemic) [Compound 28]  giant foxtail (Setaria faberi, SETFA)           70
3  CN1CC(c2nn(C)c(Cl)c2Br)C(C(=O)Nc2ccc(F)c(F)c2F)C1=O (racemic) [Compound 32]  giant foxtail (Setaria faberi, SETFA)           80

----------
- Tested on: barnyardgrass (Echinochloa crus-galli, ECHCG)
- Assay name: Test A pre-emergence, barnyardgrass
- Assay type: in vivo
- Condition context: Pre-Emergence at 250 g/ha; after 13 d
Reported property: damage to plant (100=total damage; 0=no damage) ECHCG

>>> df
                                   compound  assay_value
0  CN1CC(c2cc(C(F)(F)F)n(C)n2)C(C(=O)Nc2cccc(F)c2C(F)(F)F)C1=O (racemic)           90
1  CCn1nc([C@H]2CN(C)C(=O)[C@@H]2C(=O)Nc2ccc(F)nc2F)c2cccc(F)c21           90
2  CN1CC(c2cc(C(F)(F)F)n(C)n2)C(C(=O)Nc2cccc(F)c2F)C1=O (stereo not shown)           10
3  CN1CC(c2cc(C(F)(F)F)n(C)n2)C(C(=O)Nc2cccc(F)n2)C1=O (racemic)          100
4  CN1CC(c2cc(Cl)n(C)n2)C(C(=O)Nc2ccc(F)cc2F)C1=O (racemic)           80
5  CN1CC(c2cc(Cl)n(C)n2)C(C(=O)Nc2cccc(F)c2F)C1=O (racemic)           90
6  CN1CC(c2cc(Cl)n(C)n2)C(C(=O)Nc2ccc(F)c(F)c2F)C1=O (racemic)           80
